# testTarget: TSLP, Q969D9
# assaySummary: Kd (SPR)
recordedEndpoint: Kd (nM)
The figure you give is taken to be in nM; do not add the unit.

Data point: unnamed (protein) chain 1: QMQLVESGGGVVQPGRSLRLSCAASGFTFRTYGMHWVRQAPGKGLEWVAVIWYDGSNKHYADSVKGRFTITRDNSKNTLNLQMNSLRAEDTAVYYCARAPRYDWEYEAFDVWGQGTMVTVSS chain 2: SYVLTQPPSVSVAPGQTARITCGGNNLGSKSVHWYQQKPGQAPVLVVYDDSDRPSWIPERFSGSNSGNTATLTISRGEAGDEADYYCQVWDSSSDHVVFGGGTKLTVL ; Kd = 102

In plain terms, unnamed (protein) chain 1: QMQLVESGGGVVQPGRSLRLSCAASGFTFRTYGMHWVRQAPGKGLEWVAVIWYDGSNKHYADSVKGRFTITRDNSKNTLNLQMNSLRAEDTAVYYCARAPRYYDYYEAFDVWGQGTMVTVSS chain 2: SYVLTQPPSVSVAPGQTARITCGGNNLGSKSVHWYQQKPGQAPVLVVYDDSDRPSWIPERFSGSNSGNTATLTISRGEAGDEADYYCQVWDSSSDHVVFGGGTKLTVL has a documented Kd of 33.2

Kd measured on unnamed (protein) chain 1: QMQLVESGGGVVQPGRSLRLSCAASGFTFSTFAMHWVRQAPGKGLEWVAVIWYDGSNKHYADSVKGRFTITRDNSKNTLNLQMNSLRAEDTAVYYCARAPRYDEAYEAFDVWGQGTMVTVSS chain 2: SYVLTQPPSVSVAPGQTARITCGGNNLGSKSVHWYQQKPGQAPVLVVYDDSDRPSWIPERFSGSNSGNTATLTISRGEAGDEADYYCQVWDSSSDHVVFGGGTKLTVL = 502
